These measurements were taken from patent US7803831B2.

# assay.notes: Sulforhodamine B (SRB) growth inhibition / cytotoxicity assay
# Assay type: cell-based
# condition.details: SRB growth arrest assay; cell line not stated
pIC50: −log10 of the molar value.
recorded.endpoint: pIC50

[[record]]
compound = "CC(=O)c1ccc(NC(=O)c2c[nH]nc2-c2cc(Cl)c(O)cc2O)cc1 [Example 1]"
result = "< 4.30"


----------
Read-out record for yeast HSP90 (Saccharomyces cerevisiae, UniProt P02829): pIC50
pIC50: −log10 of the molar value.
recorded.endpoint: pIC50

[[record]]
line_notation = "O=C(Nc1ccc(O)cc1)c1c[nH]nc1-c1cc(Cl)c(O)cc1O"
system_name = "yeast HSP90 (Saccharomyces cerevisiae, UniProt P02829)"
result = "> 4.30"

[[record]]
line_notation = "COc1ccc(NC(=O)c2c[nH]nc2-c2cc(Cl)c(O)cc2O)cc1"
system_name = "yeast HSP90 (Saccharomyces cerevisiae, UniProt P02829)"
result = "> 4.30"

[[record]]
line_notation = "O=C(Nc1ccccn1)c1c[nH]nc1-c1cc(Cl)c(O)cc1O"
system_name = "yeast HSP90 (Saccharomyces cerevisiae, UniProt P02829)"
result = "< 4.30"

[[record]]
line_notation = "O=C(O)c1ccc(CNC(=O)c2c[nH]nc2-c2cc(Cl)c(O)cc2O)cc1"
system_name = "yeast HSP90 (Saccharomyces cerevisiae, UniProt P02829)"
result = "> 4.30"

[[record]]
line_notation = "O=C(NCc1cccc(C(F)(F)F)c1)c1c[nH]nc1-c1cc(Cl)c(O)cc1O"
system_name = "yeast HSP90 (Saccharomyces cerevisiae, UniProt P02829)"
result = "> 4.30"

[[record]]
line_notation = "O=C(NCc1ccc(F)cc1)c1c[nH]nc1-c1cc(Cl)c(O)cc1O"
system_name = "yeast HSP90 (Saccharomyces cerevisiae, UniProt P02829)"
result = "> 4.30"

[[record]]
line_notation = "O=C(Nc1ccc2c(c1)OCCO2)c1c[nH]nc1-c1cc(Cl)c(O)cc1O"
system_name = "yeast HSP90 (Saccharomyces cerevisiae, UniProt P02829)"
result = "> 4.30"

[[record]]
line_notation = "O=C(O)Cc1ccc(NC(=O)c2c[nH]nc2-c2cc(Cl)c(O)cc2O)cc1"
system_name = "yeast HSP90 (Saccharomyces cerevisiae, UniProt P02829)"
result = "< 4.30"

[[record]]
line_notation = "O=C(Nc1ccc(Cl)cc1)c1c[nH]nc1-c1cc(Cl)c(O)cc1O"
system_name = "yeast HSP90 (Saccharomyces cerevisiae, UniProt P02829)"
result = "< 4.30"

